# Target entity: T1, Peptide F (monkey PAR-2), N-terminal biotinylated (Monkey (Macaca mulatta), N-terminal biotin via G4S linker)
# T1 construct: also called Peptide F N-Term
# T1 sequence (peptide, as listed by the source): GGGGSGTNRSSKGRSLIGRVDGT
# Method: SPR, antibody captured
# Procedure: Equilibrium dissociation constants (KD values) for antigen binding to selected purified PAR-2 antibodies were determined by surface kinetics using a real-time surface plasmon resonance biosensor assay. […] Antigen-antibody binding and dissociation were monitored in real time at room temperature. […] ND: not determined.
Measure: Kd
Returns: string containing the number followed by the unit.

Binder	Kd
H4H584P (antibody, human IgG4, V domains shown, also called H1H584P variable regions) VH: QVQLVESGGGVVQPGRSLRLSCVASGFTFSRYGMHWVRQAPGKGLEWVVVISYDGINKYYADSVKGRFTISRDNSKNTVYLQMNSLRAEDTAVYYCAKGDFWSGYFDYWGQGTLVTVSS VL: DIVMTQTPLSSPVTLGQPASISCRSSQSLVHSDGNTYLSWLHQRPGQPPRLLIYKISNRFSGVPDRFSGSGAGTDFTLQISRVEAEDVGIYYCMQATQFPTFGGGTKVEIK	93.3 nM

stdin: Query: Kd; subject: H4H581P (antibody, human IgG4, V domains shown, also called mAb H4H581P; H1H581P variable regions) VH: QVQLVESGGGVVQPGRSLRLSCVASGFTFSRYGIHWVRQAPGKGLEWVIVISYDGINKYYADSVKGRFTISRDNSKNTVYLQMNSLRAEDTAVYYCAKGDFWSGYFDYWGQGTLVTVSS VL: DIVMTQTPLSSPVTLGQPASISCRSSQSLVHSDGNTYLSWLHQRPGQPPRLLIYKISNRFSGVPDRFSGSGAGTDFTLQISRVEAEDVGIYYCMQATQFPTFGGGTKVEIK
stdout: 36.6 nM

stdin: Query: Kd; subject: H4H585P (antibody, human IgG4, V domains shown, also called H1H585P variable regions) VH: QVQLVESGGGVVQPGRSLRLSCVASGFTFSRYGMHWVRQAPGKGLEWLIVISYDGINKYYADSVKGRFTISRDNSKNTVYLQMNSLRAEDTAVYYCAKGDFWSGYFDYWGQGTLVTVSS VL: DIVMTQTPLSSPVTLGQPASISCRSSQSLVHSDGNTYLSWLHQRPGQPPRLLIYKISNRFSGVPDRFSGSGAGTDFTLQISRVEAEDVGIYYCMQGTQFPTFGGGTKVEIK
stdout: 46.2 nM

The values you see were collected from patent US20110059095A1.
